From: patent US20190144529A1

- Target: T1, human serum albumin (human, UniProt P02768 25-609)
- T1 construct: mature; Bought purified serum albumin; also called HSA; Human albumin
- Test Protocol: SPR, Fab captured; albumin taken as HSA;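 also: antibody held on a capture surface, albumin injected for 3 min association then dissociation followed, signals corrected using a blank reference flow cell and buffer-only injections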
Recorded Endpoint: kon (M⁻¹ s⁻¹)
Reply numerically in M⁻¹ s⁻¹, unit not repeated.

Input CA645 gL4gH30 Fab (Fab, V domains shown, Fab: human gamma1 CH1, human kappa (Km3); Kabat numbering) VH: EVQLLESGGGLVQPGGSLRLSCAVSGIDLSNYAINWVRQAPGKGLEWIGIIWTSGTTFYATWAKGRFTISRDNSKNTVYLQMNSLRAEDTAVYYCARTVPGYSTAPYFDLWGQGTLVTVSS VL: DIQMTQSPSSVSASVGDRVTITCQSSPSVWSNFLSWYQQKPGKAPKLLIYEASKLTSGVPSRFSGSGSGTDFTLTISSLQPEDFATYYCGGGYSSISDTTFGGGTKVEIK . Output kon: 43800

Input CA645 gL4gH40 Fab (Fab, V domains shown, Fab: human gamma1 CH1, human kappa (Km3); Kabat numbering) VH: EVQLLESGGGLVQPGGSLRLSCAVSGIDLSNYAINWVRQAPGKGLEWIGIIWASGTTFYATWAKGRFTISRDNSKNTVYLQMNSLRAEDTAVYYCARTVPTYSTAPYFDLWGQGTLVTVSS VL: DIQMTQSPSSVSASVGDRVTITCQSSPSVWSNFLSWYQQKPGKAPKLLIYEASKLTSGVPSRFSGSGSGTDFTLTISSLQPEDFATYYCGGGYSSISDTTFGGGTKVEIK . Output kon: 55600
